Would you mind telling me the reported concentration at 0.25 h of each entry?
test: Intracolonic dosing with and without β-glucuronidase, catheterized rat; assay type: in vivo; details: male, Sprague Dawley, rat, plasma, other: intracolonic, 10 mg/kg, rats N=6; Compound 1 10 mg/kg intracolonic without enzyme; 0.25 hrs
Quote the value and follow it with the unit of measurement.

Use the examples below as a reference point.
COc1cc2c(cc1OC)-c1nn(C3OC(C(=O)O)C(O)C(O)C3O)c(Nc3cccc(F)c3)c1C2 (stereo in doubt) [Cpd 1-GluB]    70.2 ng/mL
COc1cc2c(cc1OC)-c1n[nH]c(Nc3cccc(F)c3)c1C2 [Compound 1]    6.4 ng/mL

Now consider a different molecule.
Exercise: Which concentration at 0.25 h is reported for this molecule? COc1cc2c(cc1OC)-c1n[nH]c(N(c3cccc(F)c3)[C@H]3O[C@@H](C(=O)O)[C@H](O)[C@@H](O)[C@@H]3O)c1C2 [Cpd 1-GluA]
Key: 666 ng/mL
